As shown below, each of these sequences has a reported recombinant barcode read abundance (log10) value.
Assay: recombinant barcode read abundance after kanamycin selection (control-corrected) (log10(CPM+1)); higher = more efficient recombination; sequences stand for … in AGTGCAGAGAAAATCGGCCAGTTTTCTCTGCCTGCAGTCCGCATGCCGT…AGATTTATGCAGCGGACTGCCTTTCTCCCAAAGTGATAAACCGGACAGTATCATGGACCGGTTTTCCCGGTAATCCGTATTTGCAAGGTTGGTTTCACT; site = the 11-nt target
RECORDED METRIC: recombinant barcode read abundance (log10)

sequence="CTAATTACTTGGGTTCTAACCTGTTGCAA (site CTAAGTACTCT)" measured_value=0.0716
sequence="TACAGTCCTTGGGTTCTAACCTGTTGCCT (site TGCACTCCTAG)" measured_value=0.276
sequence="GCTAAGACTTGGGTTCTAACCTGTTGCTG (site GCTAAGACTCA)" measured_value=1.93
sequence="TAATGCCCTTGGGTTCTAACCTGTTGCCT (site TAATGCCCTAG)" measured_value=0.634
sequence="GCCGGGTCTTGGGTTCTAACCTGTTGCTT (site GCCGGGTCTAA)" measured_value=0.812
sequence="CTCCGTCCTTGGGTTCTAACCTGTTGCGT (site CTCCGCCCTAG)" measured_value=0.23
sequence="GTCCCTCCTTGGGTTCTAACCTGTTGCAT (site GTCCCTCCTAC)" measured_value=0.405
sequence="TAGTCAACTTGGGTTCTAACCTGTTGCGT (site TGGCCAACTAC)" measured_value=0.0928
sequence="CTACAGACTTGGGTTCTAACCTGTTGCGG (site CTACAGACTTC)" measured_value=1.31
sequence="GTGAGGTCTTGGGTTCTAACCTGTTGCCT (site GTGAGGTCTAG)" measured_value=1.62
sequence="TAGAGAGCTTGGGTTCTAACCTGTTGCAG (site TAGAGAGCTCT)" measured_value=1.94
sequence="AGGAGTCCTTGGGTTCTAACCTGTTGCGT (site AGCAGTCCTAC)" measured_value=0.182
sequence="TGGTGTACTTGGGTTCTAACCTGTTGCCT (site TGGTGTACTAG)" measured_value=0.461
sequence="GTCATGCCTTGGGTTCTAACCTGTTGCGT (site GTCTTCCCTAC)" measured_value=0.125
sequence="TAATTGTCTTGGGTTCTAACCTGTTGCGT (site TAATTGTCTAC)" measured_value=2.45
sequence="TCATATTCTTGGGTTCTAACCTGTTGCCT (site TCATATTCTAG)" measured_value=0.0782
sequence="TCCGTGCCTTGGGTTCTAACCTGTTGCCT (site TCCGTGACTAG)" measured_value=0.00917
sequence="AGGAAGACTTGGGTTCTAACCTGTTGCCG (site AGGAAGACTCC)" measured_value=0.883
sequence="TCGTCATCTTGGGTTCTAACCTGTTGCCT (site TCGTCCTCTAG)" measured_value=0.276
sequence="AGCTTAGCTTGGGTTCTAACCTGTTGCCA (site AGCTTAGCTAG)" measured_value=0.484
sequence="GTCTCTACTTGGGTTCTAACCTGTTGCCG (site GTCCCTACTCG)" measured_value=0.593

* * *

Assay: recombinant UMI read abundance after kanamycin selection (control-corrected) (log10(CPM+1)); higher = more efficient recombination; extreme values may be limits of the assay; sequences stand for … in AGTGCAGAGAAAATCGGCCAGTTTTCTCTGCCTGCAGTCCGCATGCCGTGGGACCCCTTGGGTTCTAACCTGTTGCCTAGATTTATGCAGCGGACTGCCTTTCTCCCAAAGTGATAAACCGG…AGGTTGGTTTCACT; site = the 11-nt donor
RECORDED METRIC: recombinant UMI read abundance (log10)

sequence="CTAGTATCATGGACCGGTTTTCCCGGTAATCCGTATTTGAC (site GGAGTATCTGT)" measured_value=2.07
sequence="CTGGAAACATGGACCGGTTTTCCCGGTAATCCGTATTTGCG (site CTGGAAACTCG)" measured_value=2.37
sequence="GTAGAGGCATGGACCGGTTTTCCCGGTAATCCGTATTTGTG (site GTAGAGGCTCA)" measured_value=1.58
sequence="ATTGAGACATGGACCGGTTTTCCCGGTAATCCGTATTTGGT (site ATTCAGACTAC)" measured_value=0.296
sequence="TAGTCAGCATGGACCGGTTTTCCCGGTAATCCGTATTTGCT (site TAGTCAGCTAG)" measured_value=0.957

Measured values drawn from the supplement of paper PMC11208160 for this set.
